Read-out: CYP2C8 (gene 1558)
test summary: LTEA_HepaRG_CYP2C8: Life Technologies and Expression Analysis (LTEA) Assay for CYP2C8 using HepaRG (AID 2283483)
test settings: mRNA level, 48 h; actives raise or lower the signal
The source made the active and inactive calls. Rule for the calls: active = hit-call score of the fitted dose curve at least 0.9, where 1 is the maximum; inactive = score below 0.9.
Would you mind answering with one of these outcomes? y = active, n = inactive

Q. // param item: `Cc1cccc2ccccc12` ; yields the recorded call
A. n

Q. Hi team, can someone confirm the assay call for `C[C@]12CC[C@@H]3c4ccc(O)cc4CC[C@H]3[C@@H]1CC[C@H]2O` ?
A. y

Q. Per the assay record, what outcome was assigned to `Cc1oc2c(NC(=O)c3c(Cl)cccc3Cl)cccc2c1C(C)(C)O` ?
A. y

Q. Hi, do you know how `CCCCCCCCCC(=O)O` came out in this test?
A. n

Q. Kindly provide the recorded test outcome for the following molecule: `c1ccc2n[nH]nc2c1`
A. n

Q. What was the test verdict on `COc1cccc([C@H](O)C2CCN(CCc3ccc(F)cc3)CC2)c1OC` ?
A. n

Q. For `Cc1ncc(CO)c(CO)c1O` , which call appears in the assay record?
A. n

Q. Short answer needed: outcome of this test for `CC(C)(c1cc(Br)c(O)c(Br)c1)c1cc(Br)c(O)c(Br)c1` ?
A. n

Q. Status in this test for `CC(=O)N1CCN(c2ccc(OC[C@H]3CO[C@](Cn4ccnc4)(c4ccc(Cl)cc4Cl)O3)cc2)CC1` ?
A. y

Q. Tell me the recorded outcome of this test for `CCCOC(=O)c1cc(O)c(O)c(O)c1` .
A. n

Q. # outcome recorded in this test, key = `CCN(Cc1cccnc1)C(=O)c1cccc(Cl)c1[C@]1(C)C(=O)N(Cc2ccc(OC)cc2OC)c2ccc(Cl)cc21`
A. y

Q. Recorded test call requested for `O=C(O)c1ccccc1-n1cc(C(=O)O)c(=O)c2cc(Nc3c(F)cc(F)cc3Cl)c(Cl)cc21`
A. y

Q. Test call for this molecule, please: `Cc1occc1C(=O)Nc1ccc(C(=O)N2CCC(F)(F)/C(=C\C(=O)N3CCC(N4CCCCC4)CC3)c3ccccc32)cc1`
A. y

Q. What was the test verdict on `CCCCOC(=O)c1ccc(O)cc1` ?
A. n

Q. Each molecule tested received a call. Report the one for `CCOC(=O)O[C@H](C)OC(=O)c1ccc2c(c1)cc(C(=O)NC1CCN(C(C)C)CC1)n2Cc1cc(-c2ccc(Cl)s2)on1` .
A. n

Q. What classification did `NC(=O)c1nc(-c2cccc(-c3cc(F)ccc3OCC(F)(F)C(F)(F)F)c2)n[nH]1` end up with in this test?
A. n

Q. Kindly provide the recorded test outcome for the following molecule: `O=C(O)Cc1cc(I)c(Oc2ccc(O)c(I)c2)c(I)c1`
A. n

Q. Recorded call for `CCCC(=O)OCCC(C)C` ?
A. n

Q. Please let me know the test result on file for `CC[C@H](NC(=O)c1cc(F)ccc1NS(=O)(=O)c1cccc2cccnc12)c1ccccc1` .
A. n

Q. What was the test verdict on `c1ccc2ccccc2c1` ?
A. n

Q. What was the test verdict on `CO[C@H]1/C=C/O[C@@]2(C)Oc3c(C)c(O)c4c(O)c(c(/C=N/N5CCN(C)CC5)c(O)c4c3C2=O)NC(=O)/C(C)=C\C=C\[C@H](C)[C@H](O)[C@@H](C)[C@@H](O)[C@@H](C)[C@H](OC(C)=O)[C@@H]1C` ?
A. y
